Record type: IC50 measurement. Applies to: human CK1α (Homo sapiens)
Give your result in nM as a bare value.

>>> assay_value("Fc1ccc(-c2nc3cc(F)ccn3c2-c2ccncc2)cc1")
1400
>>> assay_value("Cc1ccn2nc(-c3ccc(F)cc3)c(-c3ccncc3)c2c1")
2000
>>> assay_value("Fc1ccc(-c2nc3cc(C(F)(F)F)ccn3c2-c2ccncc2)cc1")
8400
>>> assay_value("COc1cccn2nc(-c3ccc(F)cc3)c(-c3ccncc3)c12")
4900
>>> assay_value("Cc1ccn2c(-c3ccncc3)c(-c3ccc(F)cc3)nc2c1")
1700

Enter measured IC50, system human CK1α (Homo sapiens), for the compound shown: "CCc1ccn2c(-c3ccncc3)c(-c3ccc(F)cc3)nc2c1"
1700

Provide IC50, recorded with human CK1α (Homo sapiens), of "COc1ccn2c(-c3ccncc3)c(-c3ccc(F)cc3)nc2c1"
Sequence (P48729 whole entry): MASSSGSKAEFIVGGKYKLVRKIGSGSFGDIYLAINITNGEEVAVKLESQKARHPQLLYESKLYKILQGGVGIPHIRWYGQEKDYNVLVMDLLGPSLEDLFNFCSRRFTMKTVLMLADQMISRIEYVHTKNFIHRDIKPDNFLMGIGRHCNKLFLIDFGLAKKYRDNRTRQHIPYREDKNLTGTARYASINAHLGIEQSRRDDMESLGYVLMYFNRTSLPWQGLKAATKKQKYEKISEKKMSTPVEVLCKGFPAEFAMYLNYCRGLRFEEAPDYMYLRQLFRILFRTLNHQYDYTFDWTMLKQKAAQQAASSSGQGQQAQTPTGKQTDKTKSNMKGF
1000

# assay system human CK1α (Homo sapiens): give IC50 of "CC(C)(C)c1ccn2c(-c3ccncc3)c(-c3ccc(F)cc3)nc2c1"
6100

====

- Test system: C. albicans Yck2 kinase domain
- Experimental Details: biochemical
- Assay type: biochemical, Candida albicans
- Measurement Setup: Ratio of HsCK1α IC50 / CaYck2 IC50
Decision: Fungal selectivity (fold) >= 10 fold yields Yes, all other cases yield No.

Hi, just wondering whether "COc1ccn2c(-c3ccncc3)c(-c3ccc(F)cc3)nc2c1" shows Fungal selectivity (fold) of 10 fold or higher.
No

Reported Fungal selectivity (fold) at or above 10 fold? "Fc1ccc(-c2nn3cccc(F)c3c2-c2ccncc2)cc1"
Yes

Check if Fungal selectivity (fold) >= 10 fold (inclusive). Item: "CCc1ccn2c(-c3ccncc3)c(-c3ccc(F)cc3)nc2c1"
No

Hi team, for "Cc1ccn2c(-c3ccncc3)c(-c3ccc(F)cc3)nc2c1" , is the recorded Fungal selectivity (fold) at or above 10 fold?
No

// inclusive: Fungal selectivity (fold) at least 10 fold? input: "COc1cccn2nc(-c3ccc(F)cc3)c(-c3ccncc3)c12"
Yes

Please tell me: is the compound "Fc1ccc(-c2nc3cc(C(F)(F)F)ccn3c2-c2ccncc2)cc1" at or over 10 fold in terms of Fungal selectivity (fold)?
Yes

Dear colleague, could you confirm whether "CC(C)(C)c1ccn2c(-c3ccncc3)c(-c3ccc(F)cc3)nc2c1" has Fungal selectivity (fold) at or above 10 fold?
No

====

- Target Desc: C. albicans Yck2 kinase domain (Candida albicans, UniProt A0A1D8PKB4)
- Sequence (A0A1D8PKB4 37-345): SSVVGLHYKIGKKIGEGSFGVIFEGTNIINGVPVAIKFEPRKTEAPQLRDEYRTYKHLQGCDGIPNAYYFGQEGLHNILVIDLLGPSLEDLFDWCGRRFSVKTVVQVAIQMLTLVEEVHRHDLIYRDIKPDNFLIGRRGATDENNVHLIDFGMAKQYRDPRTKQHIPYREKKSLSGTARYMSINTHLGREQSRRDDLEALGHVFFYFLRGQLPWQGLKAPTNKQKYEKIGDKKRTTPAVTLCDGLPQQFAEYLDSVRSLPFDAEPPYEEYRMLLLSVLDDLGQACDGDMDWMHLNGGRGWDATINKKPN
Metric: IC50

See these solved cases before continuing.
>>> assay_value("Fc1ccc(-c2nn3ccc(C(F)(F)F)cc3c2-c2ccncc2)cc1")
"> 1000 nM"
>>> assay_value("Fc1ccc(-c2nn3cc(C(F)(F)F)ccc3c2-c2ccncc2)cc1")
"> 1000 nM"

Please examine the following record next.
Kindly indicate its recorded IC50. Item: "N#Cc1cccn2nc(-c3ccc(F)cc3)c(-c3ccncc3)c12"
> 1000 nM
